- ASSAY: Trypanosoma cruzi growth suppression in host cells – NIH3T3 host cells, beta-gal luminescence, confirmation (AID 2044);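 further: intracellular parasites grown in NIH/3T3 mouse fibroblasts as host cells; luminescent beta-galactosidase reporter signal from transgenic T. cruzi replicating inside host cells; inhibitors lower the luminescence signal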
- Type: functional, cell-based
Active and inactive are the calls of the source. No stated cut-off is given here; in the data, actives have a measured EC50 and inactives only a lower limit.
OBSERVABLE: EC50

SMILES STR | EC50
Cc1ccc2c(c1)c(/C=C/c1cc[n+](C)cc1)c(C)n2C | 0.294 µM (active)
Cc1sc2ncnc(NC3CCN(Cc4ccccc4)CC3)c2c1C | 1.78 µM (active)

Let us examine a further case.
In: For the molecule `CCn1c2ccccc2c2cc(NC(=O)c3cc(OC)c(OC)c(OC)c3)ccc21` , report EC50.
Out: 1 µM (active)

Value source: ChEMBL document CHEMBL1201862
